MEASUREMENT TARGET: T1, human TNFR2 on cells (human, UniProt P20333 23-461)
T1 construct: whole, on cells; also called TNFR2 on Jurkat clone H6; human TNFR2 on CD4+ and CD8+ T cells
T1 sequence (looked up): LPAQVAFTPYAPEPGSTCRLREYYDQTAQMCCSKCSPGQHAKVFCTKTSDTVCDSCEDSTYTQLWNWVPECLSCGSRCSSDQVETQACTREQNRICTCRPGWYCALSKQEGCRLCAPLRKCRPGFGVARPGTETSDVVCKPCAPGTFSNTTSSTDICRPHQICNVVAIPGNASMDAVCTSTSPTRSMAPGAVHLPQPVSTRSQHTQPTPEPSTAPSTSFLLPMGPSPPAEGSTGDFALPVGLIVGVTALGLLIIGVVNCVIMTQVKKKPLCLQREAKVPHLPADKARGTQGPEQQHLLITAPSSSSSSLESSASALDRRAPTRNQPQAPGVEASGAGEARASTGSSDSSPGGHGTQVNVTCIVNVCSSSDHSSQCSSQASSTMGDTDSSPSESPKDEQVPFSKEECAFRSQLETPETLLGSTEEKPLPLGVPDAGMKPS
MEASUREMENT NOTES: flow cytometry on human PBMC, antibody at 10 ug/mL, anti-human Fc-PE secondary
Protocol: The following day 0.3×10⁶ PBMC were counted and washed with PBS (Lonza). PBMCs were resuspended in Fixable Viability Stain 575V (BD) diluted 1:1,000 in PBS and incubated for 10 minutes. PBMCs were then washed twice in PBS to remove residual viability stain. […] T cells were analyzed for chimeric TNFR2 binding by gating on viable cells defined as lymphocytes using forward and side scatter and as T cells by anti-CD3 staining. […]
OBSERVABLE: % CD8^+ ab^+ Donor 2 (%)
Answers are plain numbers, in %.

>>> result("chimeric SBT-002 (antibody, V domains shown, also called chSBT-002) VH: QVTLKESGPGILQPSQTLSLTCSFSGFSLSTSGMGVGWIRQPSGKGLEWLAHIWWDDDKFYNPSLKSQLTISKDTSRNQVFLKLTSVVTADTATYYCARLTGTRYFDYWGQGTTLTVSS VL: DVQMTQSPSSLSASLGGKVTITCKASQDINKFIAWYQHKPGKGPRLLIHYTSTLQPGIPSKFSGSGSGRDYSFSISNLEPEDIATYYCLQYGNLWTFGGGTKLEIT")
18.9

For each entry beneath this line, provide reported % CD8^+ ab^+ Donor 2.
1. chimeric SBT-004 (antibody, V domains shown, VH fused to a human IgG1 Fc domain; also called chSBT-004) VH: EVQLQQSGPEVGRPGSSVKISCKASGYTFTDYIMHWVKQSPGQGLEWIGWVDPEYGSTDYAEKFKKKATLTADTSSNTAYIQLSSLTSEDTATYFCARDDGSYSPFDYWGQGVMVTVSS VL: DIQMTQSPPSLSASLGDKVTITCQASQNINKYIAWYQQKPGKAPRLLIRYTSTLESGTPSRFSGSGSGRDYSFSISNVESEDIASYYCLQYVNLLTFGAGTKLEIK
2. chimeric SBT-004b (antibody, human IgG1, V domains shown, Same heavy chain as chSBT-004 (human IgG1 Fc domain); also called chSBT-004b) VH: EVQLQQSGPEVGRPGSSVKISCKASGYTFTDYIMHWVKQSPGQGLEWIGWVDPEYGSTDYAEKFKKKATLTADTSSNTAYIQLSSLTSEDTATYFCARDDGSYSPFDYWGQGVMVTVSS VL: NIVMTQSPKSMSMSVGERVTLTCKASENVVTYVSWYQQKPEQSPKLLIYGASNRYTGVPDRFTGSGSATDFTLTISSVQAEDLADYHCGQGYSYPYTFGGGTKLEIK
3. chimeric SBT-003 (antibody, V domains shown, also called chSBT-003) VH: QIQLVQSGPELKKPGETVKISCKASGYTFTDYSMHWVKQAPGKGLKWMGWINTETGEPTYADDFKGRFAFSSETSTSTAYLQINNLKNDDTTTYFCATYYGSSYVPDYWGQGTSLTVSS VL: DIVMTQSHKFMSTSVGDRVSITCKASQNVGTAVAWYQHKPGQSPKLLIYWTSSRHTGVPDRFTGSGSGTEFTLTISNVQSEDLADYFCHQYSDYPYTFGGGTKLEIK

Result:
16.1
11.4
17.7
